Measured values drawn from the domain aggregation screens of Martell et al. (2025) for this set.

Entries and their measured soluble fraction (log2) follow.
# run-description: soluble fraction after stress (log2 fold change); higher = more stays soluble; pooled small domains, quantitative proteomics
# reported-conditions: stress: pH 4

residue-sequence: HMDSDIGQQLKILLTVGTFMPSTELKAIAQQFGMKKPTDLKEWVELESDTQRIKGNPTKGYWINEINDL
soluble fraction (log2): -0.262
--
residue-sequence: HMQISDTTELSTLITKVLSEQSDALVDFKNPKKQKQVIGYLTGQVLRASQGKANPGLVRSLLEEQLSALDS
soluble fraction (log2): 0.0677
--
residue-sequence: HMGRSTQVPGVEKMTYSQAVQLLHDHGFRVDIRDSLYRDDIKPGHVIEQFPKAKSIVKPGRKIFLYINAV
soluble fraction (log2): 0.105
--
residue-sequence: HMPPGQIVNEALQRAGNSTPTGTAISAQDDIKLYTSALAELATQGDTSSASVAKLREALQTAQVAFYNAV
soluble fraction (log2): 0.0927
--
residue-sequence: HMIHSEEIQDHIFVKQLGEVFLRNHINYENIMKSWDDHTNVIKRFRRYPHRNKILNRESTIDEISFLKE
soluble fraction (log2): -0.0283
--
residue-sequence: HMNGPTPEEKLAVVNAEFVRQYGDEYEELELEGEELEEYYQKALNKEDFEYDIPHLPGWDEP
soluble fraction (log2): -0.905
--
residue-sequence: HMFDTVKIGKRIAELRKKRDMTQFELADRLGISYQAVSNWERGNSMPDIAKLPELAEIFGVTVDEILG
soluble fraction (log2): 0.135
--
residue-sequence: HMKQTMIVVMEKDAPQSQIDDMVKRIEGLGLKAHTIVGTQRTVVAAIGEKREDTRESLAGSPGVAEVVPIL
soluble fraction (log2): -0.137
